// provenance: patent US10174052B2

# EC50 annotations
Target: α7 nicotinic ACh receptor ion channel expressed in mammalian HEK 293 cells (Rattus norvegicus)
Construct: expressed in transfected cells
Experiment: Ca2+-sensitive fluorescence-based assay for α7 nicotinic acetylcholine receptor channel function (FLIPR), agonist activity
Type: cell-based
metric-name: EC50 (µM)

INSERT INTO results (compound, lt_gt_eq, quantitative_readout) VALUES
  ('FC(F)(F)c1ccc2nc3n(c2c1)C[C@@]1(CN2CCC1CC2)O3 (single isomer, unassigned)', '=', 7.19),
  ('FC(F)(F)c1ccc2nc3n(c2c1)C[C@]1(CN2CCC1CC2)O3 (single isomer, unassigned)', '>', 100);

----------
Biological target: α7 nicotinic ACh receptor ion channel expressed in mammalian HEK 293 cells (Rattus norvegicus, UniProt Q05941)
Construct: expressed in transfected cells
Sequence (Q05941 23-502): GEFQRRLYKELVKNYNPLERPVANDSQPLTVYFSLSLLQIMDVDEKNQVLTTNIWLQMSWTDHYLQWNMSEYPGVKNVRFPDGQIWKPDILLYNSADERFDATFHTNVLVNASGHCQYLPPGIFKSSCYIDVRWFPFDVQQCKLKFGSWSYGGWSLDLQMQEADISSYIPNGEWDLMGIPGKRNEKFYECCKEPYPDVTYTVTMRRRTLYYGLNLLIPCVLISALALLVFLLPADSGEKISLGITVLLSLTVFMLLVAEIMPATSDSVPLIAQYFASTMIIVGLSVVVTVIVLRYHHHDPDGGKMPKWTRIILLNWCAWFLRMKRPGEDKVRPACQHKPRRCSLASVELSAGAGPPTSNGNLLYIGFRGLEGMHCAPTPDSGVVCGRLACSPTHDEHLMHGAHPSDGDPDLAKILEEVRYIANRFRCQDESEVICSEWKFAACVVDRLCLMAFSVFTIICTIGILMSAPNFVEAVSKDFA
Test: Ca2+-sensitive fluorescence-based assay for α7 nicotinic acetylcholine receptor channel function (FLIPR), agonist activity
Type: cell-based
Settings: FLIPR α7 activity rating (EC50, nM), HEK 293 cells, Ca2+ flux, class rating of EC50
Recorded EC50 by entry
metric-name: EC50

INSERT INTO measurements (compound, metric_name, result) VALUES
  ('FC(F)(F)c1ccc2nc3n(c2c1)C[C@]1(CN2CCC1CC2)O3 (single isomer, unassigned)', 'EC50', '> 1e+06 nM'),
  ('FC(F)(F)c1ccc2c(c1)nc1n2C[C@@]2(CN3CCC2CC3)O1 (single isomer, unassigned)', 'EC50', '< 100 nM'),
  ('c1ccc(-c2nc3n(n2)C[C@]2(CN4CCC2CC4)O3)cc1 [Example 14a]', 'EC50', '100 to 1000 nM'),
  ('c1ccc(-c2cn3c(n2)O[C@]2(CN4CCC2CC4)C3)cc1 [Example 21b]', 'EC50', '< 100 nM');

----------
Biological target: α7 nicotinic ACh receptor ion channel expressed in mammalian HEK 293 cells (Rattus norvegicus)
Construct: expressed in transfected cells
Assay: Ca2+-sensitive fluorescence-based assay for α7 nicotinic acetylcholine receptor channel function (FLIPR), agonist activity
Type: cell-based
Details: FLIPR α7 activity rating (EC50, nM), HEK 293 cells, Ca2+ flux, class rating of EC50
Listed next: entries and their corresponding EC50.
metric-name: EC50

INSERT INTO measurements (molecule, result) VALUES
  ('Cc1nc2c(cc1Br)nc1n2CC2(CN3CCC2CC3)O1 (racemic) [Example 18]', '100 to 1000 nM'),
  ('Clc1nc2n(n1)CC1(CN3CCC1CC3)O2 (racemic) [Example 16]', '100 to 1000 nM'),
  ('FC(F)(F)c1ccc2nc3n(c2c1)C[C@@]1(CN2CCC1CC2)O3 (single isomer, unassigned) [Example 8b]', '1000 to 100000 nM'),
  ('Clc1cccc2nc3n(c12)C[C@@]1(CN2CCC1CC2)O3 (single isomer, unassigned) [Example 9c]', '100 to 1000 nM'),
  ('c1ccc(-c2nc3n(n2)C[C@@]2(CN4CCC2CC4)O3)cc1 [Example 14b]', '< 100 nM'),
  ('FC(F)(F)c1ccc2c(c1)nc1n2C[C@]2(CN3CCC2CC3)O1 (single isomer, unassigned) [Example 8d]', '1000 to 100000 nM'),
  ('Cc1cc2nc3n(c2cc1C)C[C@]1(CN2CCC1CC2)O3 (single isomer, unassigned) [Example 5b]', '> 1e+06 nM'),
  ('Clc1nc2n(c1Cl)C[C@]1(CN3CCC1CC3)O2 [Example 2a]', '1000 to 100000 nM'),
  ('FC(F)(F)c1cccc2c1nc1n2C[C@@]2(CN3CCC2CC3)O1 (single isomer, unassigned) [Example 11b]', '< 100 nM'),
  ('Brc1nc2n(c1Br)C[C@]1(CN3CCC1CC3)O2 (single isomer, unassigned) [Example 1a]', '1000 to 100000 nM'),
  ('Clc1cnc2c(c1)nc1n2CC2(CN3CCC2CC3)O1 (racemic) [Example 20]', '< 100 nM'),
  ('COc1ccc2c(c1)nc1n2C[C@]2(CN3CCC2CC3)O1 (single isomer, unassigned) [Example 6a]', '1000 to 100000 nM'),
  ('COc1ccc(-c2cccc3c2nc2n3C[C@]3(CN4CCC3CC4)O2)cc1 (single isomer, unassigned) [Example 12a]', '> 1e+06 nM'),
  ('c1nc2n(n1)CC1(CN3CCC1CC3)O2 (racemic) [Example 17]', '100 to 1000 nM'),
  ('Clc1nc2n(c1Cl)C[C@@]1(CN3CCC1CC3)O2 [Example 2b]', '< 100 nM'),
  ('Cc1ccc2c(c1)nc1n2C[C@@]2(CN3CCC2CC3)O1 (single isomer, unassigned) [Example 7b]', '< 100 nM'),
  ('Clc1cccc2nc3n(c12)C[C@]1(CN2CCC1CC2)O3 (single isomer, unassigned) [Example 9d]', '1000 to 100000 nM'),
  ('Cc1nc2n(c1Br)CC1(CN3CCC1CC3)O2 (racemic) [Example 3a]', '< 100 nM'),
  ('COc1ccc2c(c1)nc1n2C[C@@]2(CN3CCC2CC3)O1 (single isomer, unassigned) [Example 6b]', '< 100 nM'),
  ('Cc1cccc2c1nc1n2C[C@@]2(CN3CCC2CC3)O1 (single isomer, unassigned) [Example 10b]', '< 100 nM'),
  ('Cc1ccc2nc3n(c2c1)C[C@@]1(CN2CCC1CC2)O3 (single isomer, unassigned) [Example 7a]', '< 100 nM'),
  ('Cc1cc2nc3n(c2cc1C)C[C@@]1(CN2CCC1CC2)O3 (single isomer, unassigned) [Example 5a]', '< 100 nM'),
  ('FC(F)(F)c1cccc2c1nc1n2C[C@]2(CN3CCC2CC3)O1 (single isomer, unassigned) [Example 11a]', '1000 to 100000 nM'),
  ('Cc1cccc2c1nc1n2C[C@]2(CN3CCC2CC3)O1 (single isomer, unassigned) [Example 10a]', '100 to 1000 nM'),
  ('Clc1cccc2c1nc1n2C[C@]2(CN3CCC2CC3)O1 (single isomer, unassigned) [Example 9a]', '1000 to 100000 nM'),
  ('Brc1nc2n(n1)CC1(CN3CCC1CC3)O2 (racemic) [Example 15]', '100 to 1000 nM'),
  ('c1cncc(-c2ccc3c(c2)nc2n3C[C@]3(CN4CCC3CC4)O2)c1 (single isomer, unassigned) [Example 13a]', '1000 to 100000 nM'),
  ('c1ccc2c(c1)nc1n2C[C@@]2(CN3CCC2CC3)O1 (single isomer, unassigned) [Example 4a]', '< 100 nM'),
  ('c1ccc(-c2cn3c(n2)O[C@@]2(CN4CCC2CC4)C3)cc1 [Example 21a]', '< 100 nM'),
  ('Cc1c(Br)nc2n1CC1(CN3CCC1CC3)O2 (racemic) [Example 3b]', '< 100 nM'),
  ('COc1ccc(-c2cccc3c2nc2n3C[C@@]3(CN4CCC3CC4)O2)cc1 (single isomer, unassigned) [Example 12b]', '< 100 nM'),
  ('c1cncc(-c2ccc3c(c2)nc2n3C[C@@]3(CN4CCC3CC4)O2)c1 (single isomer, unassigned) [Example 13b]', '100 to 1000 nM');

----------
Target: α7 nicotinic ACh receptor ion channel expressed in mammalian HEK 293 cells (Rattus norvegicus)
Construct: expressed in transfected cells
Experiment: Ca2+-sensitive fluorescence-based assay for α7 nicotinic acetylcholine receptor channel function (FLIPR), agonist activity
Assay type: cell-based
Settings: FLIPR α7 activity rating (EC50, nM), HEK 293 cells, Ca2+ flux, class rating of EC50
As shown below, each of these molecules has a reported EC50 value.
metric-name: EC50

INSERT INTO assay_data (molecule, metric_name, result) VALUES
  ('Brc1nc2n(c1Br)C[C@@]1(CN3CCC1CC3)O2 (single isomer, unassigned) [Example 1b]', 'EC50', '< 100 nM'),
  ('c1ccc2c(c1)nc1n2C[C@]2(CN3CCC2CC3)O1 (single isomer, unassigned) [Example 4b]', 'EC50', '1000 to 100000 nM'),
  ('Clc1cccc2c1nc1n2C[C@@]2(CN3CCC2CC3)O1 (single isomer, unassigned) [Example 9b]', 'EC50', '< 100 nM'),
  ('Brc1cnc2c(c1)nc1n2CC2(CN3CCC2CC3)O1 (racemic) [Example 19]', 'EC50', '< 100 nM');
